The reported measurements were obtained from patent US20220324969A1.

Target: CD33 (Sino Biological, Cat #12238-H08H) (UniProt P20138 18-259)
Sequence (P20138 18-259 limits assumed): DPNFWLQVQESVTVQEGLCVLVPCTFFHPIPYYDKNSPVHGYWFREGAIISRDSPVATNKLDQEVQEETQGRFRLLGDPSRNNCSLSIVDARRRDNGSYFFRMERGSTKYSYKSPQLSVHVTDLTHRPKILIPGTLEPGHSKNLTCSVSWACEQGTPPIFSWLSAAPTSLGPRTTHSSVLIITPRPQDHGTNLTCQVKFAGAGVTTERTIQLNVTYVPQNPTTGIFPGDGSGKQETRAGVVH
Test: BLI, IgG captured on anti-human Fc sensor, 50 nM CD33, pH 7.4 vs pH 5.4
testReadout: binding result

| binder | testReadout | measValue |
| --- | --- | --- |
| MYT2649 (antibody, V domains shown, IgG; vadastuximab VH combination #1 (F29H+T30H)) VH: QVQLVQSGAEVKKPGASVKVSCKASGYTHHNYDINWVRQAPGQGLEWIGWIYPGDGSTKYNEKFKAKATLTADTSTSTAYMELRSLRSDDTAVYYCASGYEDAMDYWGQGTTVTVSS VL: DIQMTQSPSSLSASVGDRVTINCKASQDINSYLSWFQQKPGKAPKTLIYRANRLVDGVPSRFSGSGSGQDYTLTISSLQPEDFATYYCLQYDEFPLTFGGGTKVEIK | binding result | binds |
| MYT1338 (antibody, V domains shown, IgG; vadastuximab VH variant #4 (F29H)) VH: QVQLVQSGAEVKKPGASVKVSCKASGYTHTNYDINWVRQAPGQGLEWIGWIYPGDGSTKYNEKFKAKATLTADTSTSTAYMELRSLRSDDTAVYYCASGYEDAMDYWGQGTTVTVSS VL: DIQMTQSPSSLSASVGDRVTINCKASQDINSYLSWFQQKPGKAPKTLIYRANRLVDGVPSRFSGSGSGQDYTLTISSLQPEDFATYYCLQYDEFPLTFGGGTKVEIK | binding result | binds |
| MYT2659 (antibody, V domains shown, IgG; vadastuximab VL variant #7 (N30H)) VH: QVQLVQSGAEVKKPGASVKVSCKASGYTFTNYDINWVRQAPGQGLEWIGWIYPGDGSTKYNEKFKAKATLTADTSTSTAYMELRSLRSDDTAVYYCASGYEDAMDYWGQGTTVTVSS VL: DIQMTQSPSSLSASVGDRVTINCKASQDIHSYLSWFQQKPGKAPKTLIYRANRLVDGVPSRFSGSGSGQDYTLTISSLQPEDFATYYCLQYDEFPLTFGGGTKVEIK | binding result | binds |
